Assign z-score to each entry below.
Assay: MM1S cell viability effects, profiling panel, calcein-AM fluorescence, 48 h, basal (AID 1165);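 note: viability of MM1S multiple myeloma cells under basal unstimulated conditions; test concentration not given here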
Details: higher = more signal
Reply with just the number.

(Q) Looking for the measured z-score of COc1ccc(O[C@H]2C=C[C@@H](c3ccccc3)O[C@@H]2CON=C(C)CCN2CCCc3nc(C)c(C)cc32)cc1 , can you help?
(A) -2.13

(Q) Please answer likewise for COc1ccc(O[C@H]2C=C[C@@H](c3ccccc3)O[C@@H]2CO)cc1
(A) -0.307

(Q) Please answer likewise for O=C1[C@H]2[C@H]3[C@H](O)[C@H](O)CC(=NOCc4ccccc4)[C@@H]3CC[C@H]2C(=O)N1c1cccc(Oc2ccccc2)c1
(A) 0.213

(Q) Please answer likewise for CC(CCN1CCCc2nc(C)c(C)cc21)=NO[C@H](C)c1cn([C@H](CO)Cc2ccccc2)nn1
(A) -0.0916

(Q) Please answer likewise for CC(=O)OC[C@H]1O[C@H](C#CCCc2ccccc2)C=C[C@@H]1OC(C)=O
(A) -3.49

(Q) Please answer likewise for CCOC(=O)CCN1C(=O)[C@H]2[C@H]3[C@H](O)[C@H](O)CC(=NNC(=O)OCc4ccc(OC)cc4)[C@H]3CC[C@H]2C1=O
(A) -0.885

(Q) Please answer likewise for COc1ccc(COC(=O)NN=C2C[C@@H](O)[C@@H](O)[C@@H]3[C@@H]4C(=O)N(Cc5ccccc5)C(=O)[C@@H]4CC[C@@H]23)cc1
(A) 0.458

(Q) Please answer likewise for CCOC(=O)[C@H](Cc1ccccc1)NC(=O)CCC1CC(OC(=O)NCc2ccc3c(c2)OCO3)CC2(CCCC(COC(=O)NCCOC)O2)O1 (some centres not stated)
(A) 1.05

(Q) Please answer likewise for COC(=O)CC=C1c2ccccc2[C@H](OC)[C@H]1C
(A) -0.458

(Q) Please answer likewise for CC(C)=CCCC(C)=CCON=C1C[C@@H](O)[C@@H](O)[C@@H]2[C@@H]3C(=O)N([C@@H](C)c4ccccc4)C(=O)[C@@H]3CC[C@@H]12
(A) 0.176

(Q) Please answer likewise for COC(=O)CC=C[C@@H](C)[C@@H](C=NOC(C)CN1CCCCc2nc(C)c(C)cc21)OC (some centres not stated)
(A) -1.74

(Q) Please answer likewise for CC(CCN1CCCc2nc(C)c(C)cc21)=NO[C@H](C)c1cn([C@@H]2COC[C@H]2O)nn1
(A) -0.674

(Q) Please answer likewise for O=C1C2=CC[C@H]3C(=O)N(Cc4ccccc4)C(=O)[C@H]3[C@H]2[C@H](O)[C@@H]2O[C@H]12
(A) -3.28

(Q) Please answer likewise for CCOC(=O)[C@H](Cc1ccccc1)NC(=O)CCC1CC(OC(=O)NCc2ccc3c(c2)OCO3)CC2(CCCC(COC(=O)NCCOc3ccccc3)O2)O1 (some centres not stated)
(A) 0.322

(Q) Please answer likewise for CCN1C(=O)[C@H]2[C@H]3[C@H](O)[C@H](O)CC(=NOCC[C@@H]4C=C[C@H](OC(C)=O)[C@@H](COC(C)=O)O4)[C@@H]3CC[C@H]2C1=O
(A) 0.0566

(Q) Please answer likewise for CCN1C(=O)[C@H]2[C@@H]3C(=CC[C@H]2C1=O)C(=O)[C@H]1O[C@H]1[C@H]3O
(A) -3.04

(Q) Please answer likewise for C#CCCCON=C1C[C@@H](O)[C@@H](O)[C@@H]2[C@@H]3C(=O)N([C@@H](C)c4ccccc4)C(=O)[C@@H]3CC[C@@H]12
(A) -0.597

(Q) Please answer likewise for CCCCOC(OCCCC)C(O)CSc1ccc2ccccc2c1 (configuration not stated)
(A) -2.77

(Q) Please answer likewise for CC(C)C(=O)N[C@H]1CCCN1C(=O)C=Cc1ccccc1
(A) -0.903

(Q) Please answer likewise for CCN1C(=O)[C@H]2[C@H]3[C@H](O)[C@H](O)CC(=NOC[C@@H](O)[C@H]4O[C@@H]5OC(C)(C)O[C@@H]5[C@H]4O)[C@@H]3CC[C@H]2C1=O
(A) 0.388

(Q) Please answer likewise for CO[C@H]1COC(=O)CCC[C@H](C)[C@H](OC)COC(=O)CC=C[C@@H]1C
(A) -0.469

(Q) Please answer likewise for C[C@@H]1CC[C@H]2C(=O)OC(Cc3ccccc3)CN2[C@H]1c1ccc(Br)cc1 (some centres not stated)
(A) 0.637

(Q) Please answer likewise for CC(CCC(=O)OC[C@H]1O[C@H](C#Cc2ccccc2)C=C[C@@H]1Oc1ccc(C)cc1)=NOC[C@@H](C)[C@H](OCc1ccccc1)C(C)C
(A) -1.44

(Q) Please answer likewise for O=C1CCCC=C1C(O)C1CCCCC1 (configuration not stated)
(A) 0.766

(Q) Please answer likewise for Cc1ccc(C(C)C)n1C(=O)OC(C)(C)C
(A) 0.547

(Q) Please answer likewise for COC(=O)[C@@H]1CC[C@H](C)[C@@H](c2ccc(C)cc2)N1C(=O)c1ccc(C=NOC[C@H]2O[C@H](c3ccccc3)C=C[C@@H]2Oc2ccc(OC)cc2)cc1
(A) 0.248

(Q) Please answer likewise for CCOC(=O)CCN1C(=O)[C@H]2[C@H]3[C@H](O)[C@H](O)CC(=NOCC(C)C)[C@@H]3CC[C@H]2C1=O
(A) 0.268

(Q) Please answer likewise for CCC1=NOC(CCC2CC(OC(=O)NCc3cccc4c3OCO4)CC3(CCCC(COC(=O)NCCc4ccc(Cl)cc4)O3)O2)C1 (configuration not stated)
(A) 0.396

(Q) Please answer likewise for COC(=O)[C@H](C)NC(=O)CCC1CC(OC(=O)NCc2cccc3ccccc23)CC2(CCCC(COC(=O)NCCOc3ccccc3)O2)O1 (some centres not stated)
(A) -3.37

(Q) Please answer likewise for Cc1ccc2[nH]c3nc(CCCn4ccnc4-c4ccccc4)nnc3c2c1
(A) 1.05

(Q) Please answer likewise for CC(=O)OC[C@H]1O[C@H](CC=NO[C@H](C)c2cn([C@@H]3COC[C@H]3O)nn2)C=C[C@@H]1OC(C)=O
(A) 0.621

(Q) Please answer likewise for COc1ccc(COC(=O)NN=C2C[C@@H](O)[C@@H](O)[C@@H]3[C@@H]4C(=O)N(C[C@@H]5CCCO5)C(=O)[C@@H]4CC[C@H]23)cc1
(A) 0.634

----------
Test system: Sam68 (KHDRBS1)
Experiment: Sam68 small-molecule binders, primary screen, biochemical, small-molecule microarray, 635 nm fluorescence (AID 1125);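 note: score merges 667 nm channel intensity with signal to noise over triplicate slides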
Conditions: small-molecule microarray binding, higher = more signal
# binning rule on composite z-score: Low = under 0.07, Medium = from 0.07 up to 0.7, High = 0.7 and over

(Q) Lab note: sort CO[C@@H]1C=CCC(=O)N[C@@H](C)C(=O)OC[C@@H](OC)[C@H](C)C=CCC(=O)OC[C@H]1C into the matching composite z-score band.
(A) Medium

(Q) Please answer likewise for C=CC[C@@H]1C=C[C@H](ON=C[C@@H](NS(=O)(=O)c2ccc(C)cc2)[C@H](C)C=CCC(=O)OC)[C@@H](CO)O1
(A) Low

(Q) Please answer likewise for C=CC[C@@H]1C=CC(ON=C(C)C)[C@@H](CO)O1 (stereo partly drawn)
(A) Low

(Q) Please answer likewise for C[C@@H]1CC[C@@H](C(=O)O)N[C@H]1c1cccc(N2CCOCC2)c1
(A) Medium

(Q) Please answer likewise for COC(=O)C(C(=O)OC)C1CCCC(=O)C1 (stereo not drawn)
(A) Low

(Q) Please answer likewise for O=C1C2=CC[C@H]3C(=O)N(c4ccc(F)cc4F)C(=O)[C@H]3[C@H]2[C@H](O)[C@@H]2O[C@H]12
(A) Medium

(Q) Please answer likewise for CCOC(=O)[C@H](Cc1ccccc1)NC(=O)CCC1CC(OC(=O)NCCc2ccc(F)cc2)CC2(CCCC(COC(=O)NCCOc3ccccc3)O2)O1 (stereo partly drawn)
(A) High

(Q) Please answer likewise for C[C@H]1CC[C@H]2C(=O)O[C@H](CO)CN2[C@@H]1c1ccc(Br)cc1
(A) Medium

(Q) Please answer likewise for CC(C)=CCCC(C)=CCON=C1C[C@@H](O)[C@@H](O)[C@@H]2[C@@H]3C(=O)N(C4CCCCC4)C(=O)[C@@H]3CC[C@H]12
(A) High

(Q) Please answer likewise for CON=C(C)CCN1CCCc2nc(C)c(C)cc21
(A) High

(Q) Please answer likewise for CC=CC1=C(CO)[C@H](O)[C@H]2O[C@H]2[C@@H]1O
(A) Medium

(Q) Please answer likewise for CCCCOC(OCCCC)C(O)CSc1ccc2ccccc2c1 (stereo not drawn)
(A) High

(Q) Please answer likewise for CCOC(=O)CCN1C(=O)[C@H]2[C@H]3[C@H](O)[C@H](O)CC(=NNC(=O)OCc4ccccc4)[C@H]3CC[C@H]2C1=O
(A) Low

(Q) Please answer likewise for COC(=O)[C@H](C)NC(=O)CCC1CC(OC(=O)NCCc2ccc(F)cc2)CC2(CCCC(COC(=O)NCCOc3ccccc3)O2)O1 (stereo partly drawn)
(A) High
